Tested on: PC-3
Test: Cytotoxicity against human PC3 cells assessed as growth inhibition at 10 uM after 48 hrs by SRB assay
Format: functional
Conditions: PC-3, 48 h, read-out: GI
parameter_measured: inhibition of growth at 10 µM

Observe how each entry below is paired with its result.
[
  {
    "structure_notation": "CCOC(=O)c1sc(NC(=O)Nc2ccccc2)nc1C",
    "inhibition of growth at 10 µM": "4.18%"
  },
  {
    "structure_notation": "Cc1nc(NC(=O)Nc2ccccc2)sc1C(=O)NN",
    "inhibition of growth at 10 µM": "< 10%"
  },
  {
    "structure_notation": "Cc1nc(NC(=S)Nc2ccc(F)cc2)sc1C(=O)NN",
    "inhibition of growth at 10 µM": "2.36%"
  },
  {
    "structure_notation": "Cc1nc(N)sc1C(=O)NCCO",
    "inhibition of growth at 10 µM": "< 10%"
  }
]

What measured inhibition of growth at 10 µM goes with Cc1nc(N)sc1C(=O)Nc1ccc(F)cc1 ?
< 10%

Moving on to the next compound: CCOC(=O)c1sc(NS(=O)(=O)c2ccccc2)nc1C
< 10%

Moving on to the next compound: CCOC(=O)c1sc(NC(=O)NC2CCCCC2)nc1C
< 10%

Moving on to the next compound: CCOC(=O)c1sc(NC(=O)c2cc(OC)c(OC)c(OC)c2)nc1C
35%

Moving on to the next compound: Cc1nc(NC(=O)NC2CCCCC2)sc1C(=O)NN
< 10%
